# tested-on: human recombinant adrenergic α2B receptor (Homo sapiens, UniProt P18089)
# Construct: expressed in transfected cells; host or cells: CHO-K1
# Sequence (P18089 1-450): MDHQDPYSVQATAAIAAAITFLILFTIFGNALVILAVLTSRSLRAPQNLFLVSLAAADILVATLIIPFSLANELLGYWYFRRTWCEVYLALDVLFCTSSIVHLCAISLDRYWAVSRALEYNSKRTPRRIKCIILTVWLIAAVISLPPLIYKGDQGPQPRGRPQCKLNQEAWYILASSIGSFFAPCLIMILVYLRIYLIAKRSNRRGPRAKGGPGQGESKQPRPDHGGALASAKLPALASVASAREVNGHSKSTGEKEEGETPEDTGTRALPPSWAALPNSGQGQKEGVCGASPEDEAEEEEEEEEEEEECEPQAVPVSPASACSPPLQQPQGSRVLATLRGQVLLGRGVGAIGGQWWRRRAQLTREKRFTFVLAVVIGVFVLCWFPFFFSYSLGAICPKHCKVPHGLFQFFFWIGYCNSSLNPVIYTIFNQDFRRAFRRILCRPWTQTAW
# assay-procedure: Radioligand binding, adrenergic α2B ([3H]Rauwolscine)
# condition-summary: read-out: Percentage inhibition of ligand binding, Adrenergic α2B (0.03 μM), compound at 0.03 μM; [3H]Rauwolscine; repeat datapoints each shown
# Protocol: To evaluate in radioligand binding assays the activity of compounds of the invention, human recombinant adrenergic α2B receptor expressed in Chinese hamster ovary (CHO) K1 cells (Uhlen, S. et al, Eur. J. Pharmacol. 343(1):93, 1998) in a modified Tris-HCl buffer (50 mM Tris-HCl, pH 7.4, 12.5 mM MgCl2, 1 mM EDTA, 0.2% BSA) was used. […] Receptor proteins were filtered and washed, the filters were then counted to determine [3H]Rauwolscine specifically bound. […]
quantity-name: inhibition at 0.03 µM

compound	quantity-name	observed
Cc1ccc2c(c1)c1c(n2CC(C)(O)c2cccnc2)CCN2CCCC12 (single isomer, unassigned) [II-127a]	inhibition at 0.03 µM	105%
CN1CCc2c(c3ccccc3n2CCc2ccccc2)C1 [compound 182]	inhibition at 0.03 µM	83%
CN1CCc2c(c3ccncc3n2CC(O)c2ccncc2)C1 (stereo not drawn) [II-242]	inhibition at 0.03 µM	3%
Cc1ccc2c(c1)c1c(n2CC(C)(O)c2cnco2)CCN(C)C1 (stereo not drawn) [II-142]	inhibition at 0.03 µM	23%
CN1CCc2c(c3ncccc3n2CC(C)(O)c2cccnc2)C1 (stereo not drawn) [II-126]	inhibition at 0.03 µM	4%
Cc1ccc(CCn2c3c(c4c(Br)ccc(Cl)c42)CN(C)CC3)cn1 [II-247]	inhibition at 0.03 µM	19%
Cc1ccc2c(c1)c1c(n2C(C)(C)C(O)c2ccccc2)CCN(C)C1 (stereo not drawn) [II-187]	inhibition at 0.03 µM	27%
Cc1ccc2c(c1)c1c(n2CC(OC(=O)N(C)C)c2ccncc2)CCN(C)C1 (single isomer, unassigned) [141b]	inhibition at 0.03 µM	79%
Cc1ccc2c(c1)c1c(n2CC(N)c2ccncc2)CN(C)CC1 (stereo not drawn) [compound 153]	inhibition at 0.03 µM	17%
CN1CCc2c(c3cc(CO)ccc3n2CC(C)(F)c2cccnc2)C1 (stereo not drawn) [II-213]	inhibition at 0.03 µM	11%
Cc1ccc2c(c1)c1c(n2CC(CCO)c2ccncc2)CCN(C)C1 (stereo not drawn) [II-224]	inhibition at 0.03 µM	68%
CN1CCc2c(c3ccncc3n2CC(C)(O)c2cccnc2)C1 (stereo not drawn) [II-129]	inhibition at 0.03 µM	1%
C/C(=C\n1c2c(c3cc(C)ccc31)C1CCCN1CC2)c1ccc(F)cc1 (single isomer, unassigned) [194b]	inhibition at 0.03 µM	103%
Cc1ccc2c(c1)c1c(n2CC(CC(=O)N(C)C)c2ccncc2)CCN(C)C1 (stereo not drawn) [II-230]	inhibition at 0.03 µM	22%
Cc1cnc2c(c1)c1c(n2CC(N)c2ccncc2)CCNC1 (stereo not drawn) [compound 158]	inhibition at 0.03 µM	43%
Cc1ccc2c(c1)c1c(n2CNc2ccccn2)CCN(C)C1 [compound 120]	inhibition at 0.03 µM	39%
Cc1cnc2c(c1)c1c(n2CCc2ccc(C)nc2)CCN2CCCCC12 (single isomer, unassigned) [IV-8a]	inhibition at 0.03 µM	4%
CN1CCc2c(c3cc(Cl)ccc3n2CCc2ccc(Cl)cc2)C1 [compound 213]	inhibition at 0.03 µM	26%
CN1CCc2c(c3cccc(Cl)c3n2CCc2ccccc2)C1 [compound 216]	inhibition at 0.03 µM	98%
CCN1CCc2c(c3cc(C)ccc3n2CCc2ccccc2)C1 [compound 201]	inhibition at 0.03 µM	16%
Cc1ccc2c(c1)c1c(n2CC(C)(O)c2ccc[nH]c2=O)CCN(C)C1 (stereo not drawn) [II-143]	inhibition at 0.03 µM	22%
Cc1cnc2c(c1)c1c(n2CCc2cnc(C)nc2)CCN2CCCC12 (single isomer, unassigned) [IV-93a]	inhibition at 0.03 µM	52%
Cc1ccc2c(c1)c1c(n2CC(C)(O)c2cccnc2)C(c2ccccc2)N(C)CC1 (stereo not drawn) [II-112a]	inhibition at 0.03 µM	36%
Cc1ccc2c(c1)c1c(n2CC(O)c2cnn[nH]2)CCN2CCCC12 (stereo not drawn) [II-138]	inhibition at 0.03 µM	77%
Cc1ccc2c(c1)c1c(n2CC(N=[N+]=[N-])c2ccc(F)cc2F)CCN(C)CC1 (single isomer, unassigned) [V-21a]	inhibition at 0.03 µM	98%
Cc1cnc2c(c1)c1c(n2CC(N)c2ccc(C#N)cc2)CCN(C)C1 (single isomer, unassigned) [159a]	inhibition at 0.03 µM	37%
C/C(=C\n1c2c(c3cc(C)ccc31)C1CCCN1CC2)c1ccc(C)nc1 (stereo not drawn) [193a]	inhibition at 0.03 µM	98%
Cc1cnc2c(c1)c1c(n2CCc2cnccn2)CCN2CCCC12 (stereo not drawn) [II-245]	inhibition at 0.03 µM	44%
Cc1ccc2c(c1)c1c(n2CC(C)(O)c2cnccc2Cl)CCN(C)C1 (stereo not drawn) [II-148]	inhibition at 0.03 µM	93%
Cc1ccc2c(c1)c1c(n2CC(O)c2ncc[nH]2)CCN2CCCC12 (stereo not drawn) [II-139]	inhibition at 0.03 µM	72%
Cc1ccc2c(c1)c1c(n2CC(c2ccncc2)N(C)C)CCN(C)C1 (single isomer, unassigned) [150a]	inhibition at 0.03 µM	88%
Cc1ccc2c(c1)c1c(n2CC(C)(O)c2ccc(C(=O)O)nc2)CCN(C)C1 (stereo not drawn) [compound 169]	inhibition at 0.03 µM	20%
Cc1ccc2c(c1)c1c(n2CC(OCC(=O)O)c2ccncc2)CCN2CCCC12 (stereo not drawn) [V-15]	inhibition at 0.03 µM	20%
Cc1ccc2c(c1)c1c(n2CC(O)c2ccc(C(N)=O)nc2)CCN(C)C1 (single isomer, unassigned) [144b]	inhibition at 0.03 µM	83%
Cc1ccc(CCn2c3c(c4c(Br)ccc(Br)c42)CN(C)CC3)cn1 [II-251]	inhibition at 0.03 µM	-4%
Cc1ccc2c(c1)c1c(n2CC(C)(O)c2cccnc2)CCN(C)CC1 (single isomer, unassigned) [II-135b]	inhibition at 0.03 µM	103%
